The measurements presented in this section are drawn from patent US10336761B2.

Subject Of Test: HIS-TGFβR1 T204D (Homo sapiens (Human), UniProt P36897, T204D)
Sequence (P36897 34-503 T204D): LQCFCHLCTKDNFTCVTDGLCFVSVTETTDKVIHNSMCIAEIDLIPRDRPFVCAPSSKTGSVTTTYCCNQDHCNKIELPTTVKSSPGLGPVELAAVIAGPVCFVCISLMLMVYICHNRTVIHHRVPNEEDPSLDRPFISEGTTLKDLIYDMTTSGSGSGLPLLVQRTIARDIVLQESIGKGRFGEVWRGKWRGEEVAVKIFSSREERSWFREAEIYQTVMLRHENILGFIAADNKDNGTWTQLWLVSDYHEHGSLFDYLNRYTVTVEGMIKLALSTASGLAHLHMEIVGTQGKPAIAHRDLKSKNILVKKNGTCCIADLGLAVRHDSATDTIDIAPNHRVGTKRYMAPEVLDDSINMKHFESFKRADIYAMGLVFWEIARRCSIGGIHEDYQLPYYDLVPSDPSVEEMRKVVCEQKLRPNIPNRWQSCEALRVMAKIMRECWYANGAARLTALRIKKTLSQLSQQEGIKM
Assay: HTRF probe-displacement assay, HIS-TGFβR1 T204D
Condition: 1 hour at room temperature
// values below are reported pIC50
The meaning of pIC50 here: minus log10 of the concentration in molar units.

Problem: Report value: pIC50, system: HIS-TGFβR1 T204D (Homo sapiens (Human), UniProt P36897, T204D), molecule: CC(=O)Nc1cc(Nc2nc(-c3ccc(C(F)(F)F)cn3)nn3cccc23)ccn1 [Example 332]
Solution: 7.33

Problem: Enter pIC50 (test system HIS-TGFβR1 T204D (Homo sapiens (Human), UniProt P36897, T204D)) for Fc1cnccc1Nc1nc(-c2cccc(C(F)(F)F)n2)nn2cccc12 [Example 84]
Solution: 8.43

Problem: Enter measured pIC50, system HIS-TGFβR1 T204D (Homo sapiens (Human), UniProt P36897, T204D), for the molecule shown: Fc1cc(Nc2nc(-c3ccccn3)nn3cccc23)ccn1 [Example 55]
Solution: 7.16

Problem: Name the recorded pIC50 of CCC(=O)Nc1cc(Nc2nc(-c3cccc(C(F)(F)F)n3)nn3cccc23)ccn1 [Example 313] , assay system HIS-TGFβR1 T204D (Homo sapiens (Human), UniProt P36897, T204D).
Solution: 9.05

Problem: Enter pIC50 (test system HIS-TGFβR1 T204D (Homo sapiens (Human), UniProt P36897, T204D)) for CCNc1cc(Nc2nc(-c3ccccn3)nn3ccc(CNCC(C)(C)O)c23)ccn1 [Example 258]
Solution: 8.35

Problem: Provide HIS-TGFβR1 T204D (Homo sapiens (Human), UniProt P36897, T204D) pIC50 reading for CC(C)(NCc1ccn2nc(-c3ccccn3)nc(Nc3ccncc3F)c12)c1ccccn1 [Example 301] .
Solution: 9.24

Problem: // fetch pIC50; item: COc1cccc(-c2nc(Nc3ccncc3F)c3cc(NC(=O)N4CCOCC4)cn3n2)n1 [Example 105] ; system: HIS-TGFβR1 T204D (Homo sapiens (Human), UniProt P36897, T204D)
Solution: 6.16

Problem: Using HIS-TGFβR1 T204D (Homo sapiens (Human), UniProt P36897, T204D) as the test system, report measured pIC50 of CN1CCN(CCCNC(=O)c2cnccc2Nc2nc(-c3cccc(C(F)F)n3)nn3cccc23)CC1 [Example 176] .
Solution: 8.07

----------
Recorded pIC50 values for a group of molecules are listed next.
Subject Of Test: HIS-TGFβR1 T204D (Homo sapiens (Human), UniProt P36897, T204D)
Assay: HTRF probe-displacement assay, HIS-TGFβR1 T204D
Condition: 1 hour at room temperature
In simple prose, pIC50 is minus the logarithm base ten of a concentration in moles per litre.

Molecular String	pIC50
CC(C)(O)CNC(=O)c1cc(Nc2nc(-c3cccc(C(F)(F)F)n3)nn3cccc23)ccn1	5.36
CCOC(=O)CNC(=O)c1cnccc1Nc1nc(-c2cccc(C(F)F)n2)nn2cccc12	7.66
O=C(N[C@H]1CCC[C@@H]1O)c1cnccc1Nc1nc(-c2cccc(C(F)F)n2)nn2cccc12	7.21
C[C@@H](NCc1ccn2nc(-c3ccccn3)nc(Nc3ccncc3F)c12)C(C)(C)C	8.48
COc1cccc(-c2nc(Nc3ccncc3F)c3cc(CCN4CCN(C)CC4)cn3n2)n1	5.77

Problem: Name the recorded pIC50 of the molecule listed here: Cc1cncc(-c2nc(Nc3ccncc3Cl)c3cccn3n2)n1
Solution: 7.17

Problem: Provide one value: measured pIC50 of O=C(CN1CC[C@H](O)C1)Nc1cc(Nc2nc(-c3cccc(C(F)(F)F)n3)nn3cccc23)ccn1
Solution: 8.00

Problem: Quote pIC50 reported for O=C(N[C@H]1CCCC[C@@H]1O)c1cnccc1Nc1nc(-c2cccc(C(F)F)n2)nn2cccc12 please.
Solution: 6.32
